- Test system: BT-549
- Procedure summary: NCI tumour cell line growth inhibition, 48 h
The source made the active and inactive calls. Cut-off read from the data, not from the text of the source: active = GI50 up to about 1.1 µM and inactive = higher.
Outcome (select one): Yes (active), No (inactive)

Consider the worked cases shown below.
Compound	Class name
CC1=C(C(=O)NNC(=O)c2ccccc2O)CC(C(=O)NNC(=O)c2ccccc2O)=C(C)N1	Yes
Cn1c2c(c3ccccc31)CC1c3c(c4ccccc4n3C)CC21 (stereo not given)	No
CN(C)C1(N(C)C)Oc2c(c(=O)n(C)c(=O)n2C)C(c2ccccc2Br)C1(F)F (stereo not given)	No
COc1cccc(/N=C/c2cc(OC)c(OC)c(OC)c2)c1	No
COc1cc2c(cc1OCCCC(=O)Nc1cc(C(=O)Nc3cc(C(=O)Nc4cc(C(=O)NCCCN(C)C)n(C)n4)n(C)n3)n(C)n1)N=CC1CCCN1C2=O (stereo not given)	No

From here, focus on the item given below.
stdin: Query: recorded result category for C1CSCC2(COC2)CSCCSCC2(COC2)CS1 in this test
stdout: No

----------
- Tested on: LOX IMVI
- Procedure summary: NCI tumour cell line growth inhibition, 48 h
Active and inactive are the calls of the source. Cut-off read from the data, not from the text of the source: active = GI50 up to about 1.1 µM and inactive = higher.
Metric: GI50

Known results for compounds:
Compound	GI50
COc1cc(CC(C(=O)O)C(=O)O)c(OC)cc1CC(C(=O)O)C(=O)O	> 100 µM (inactive)
O=C1c2c(nc3ccccc3c2-c2ccccc2)CN1Nc1ccccc1	> 100 µM (inactive)
c1ccc2c(-c3ccnc(-c4c[nH]c5ccccc45)n3)c[nH]c2c1	2.82 µM (inactive)
O=C(O)c1cccc(S(=O)(=O)NN2C(=O)CSC2c2ccc(Cl)cc2Cl)c1 (stereo not given)	34.2 µM (inactive)

stdin: Please report the recorded GI50 for CC(=O)O[C@H]1CC[C@@]2(C)C(=CC[C@@H]3[C@@H]2CC[C@]2(C)c4nc(Cl)ccc4C[C@@H]32)C1 .
stdout: 40.9 µM (inactive)

stdin: Bench note: what GI50 did COC(=O)[C@@](NC(=O)OCc1ccccc1)([C@H](C)O)C(F)(F)F show?
stdout: > 100 µM (inactive)

stdin: // GI50 lookup, key: Nc1ccccc1OCCCOc1ccccc1N
stdout: > 100 µM (inactive)

stdin: Entry O=S1(=O)c2ccccc2NC(=S)CC1c1ccccc1 (stereo not given) has what GI50?
stdout: > 100 µM (inactive)

stdin: Quick check: GI50 of C[C@@H]1CC[C@@H]2[C@@H](C1)O[C@@H]([C@H](C)OCc1ccccc1)SC2(C)C ?
stdout: 18.4 µM (inactive)

stdin: Which GI50 is listed for COc1cc(C2=NN(C)C(c3ccc([N+](=O)[O-])o3)C2)cc(OC)c1OC (stereo not given) ?
stdout: 69 µM (inactive)

----------
- Test system: UACC-62
- Procedure summary: NCI tumour cell line growth inhibition, 48 h
Calls of active or inactive are those of the source. No stated cut-off is given here; in the data, active = GI50 up to about 1.1 µM and inactive = higher.
GI50 by entry:

Molecule	GI50
NNC1=N/C(=C\c2ccco2)C(=O)N1	33 µM (inactive)
O=C1OC(c2ccccc2)=N/C1=C/C=C/c1ccco1	> 100 µM (inactive)
CC1(C)COC(c2cccc(C(O)c3ccc(Cl)cc3)c2)=N1 (stereo unspecified)	19 µM (inactive)
Cc1cccc(C)c1NC(=O)C(=O)CC(=O)CO	> 100 µM (inactive)
CC(=O)OC1=C2CC[C@@H]3C(CC[C@@]4(C)C3CC[C@@H]4OC(C)=O)[C@@]2(C)CC(C#N)C1=O (stereo partly specified)	12.8 µM (inactive)

stdin: # lookup: GI50 of CCOc1ccc2nc(NC(=O)C(=O)C(c3cnc4ccccc4n3)[N+](=O)[O-])sc2c1 (stereo unspecified)
stdout: > 100 µM (inactive)

stdin: What GI50 value was documented for this molecule, CCCCCCCCCCCCCC(=O)OC1CC(=O)OC1CO (stereo unspecified) ?
stdout: 19.2 µM (inactive)

stdin: Fill in: GI50 of O=C(O)CN(CC(=O)O)Cc1cc(C#Cc2ccc(C#Cc3ccccc3)cc2)cc(CN(CC(=O)O)CC(=O)O)n1 is ___
stdout: 12.4 µM (inactive)

stdin: Name the reported GI50 value associated with the molecule O=S1(=O)c2ccccc2NC(=S)CC1c1ccccc1 (stereo unspecified)
stdout: > 100 µM (inactive)

stdin: What does the record list as GI50 for CC(C)C1=Cc2ccc3c(c2C(=O)C1=O)CCCC3 ?
stdout: 7.46 µM (inactive)

stdin: Field request: GI50 | item: O=C1C2C3C=CC(C2C(=O)N1CN1CCOCC1)C1C2C(=O)N(CN4CCOCC4)C(=O)C2C31 (stereo unspecified)
stdout: > 47 µM (inactive)
